The measurements presented in this section are drawn from ChEMBL document CHEMBL1201862.

system: PC-3; experiment: NCI tumour cell line growth inhibition, 48 h
Activity calls are given as the source filed them. Rule as the data show it: active = GI50 up to about 1.1 µM and inactive = higher.
Possible outcomes: active, inactive

- COMPOUND: "CC(=O)OCC1OC(Nc2ccc3nc(C)n(-c4cccc(C)c4)c(=O)c3c2)C(OC(C)=O)C(OC(C)=O)C1OC(C)=O (centres undefined)"
  ASSIGNED CLASS: "inactive"
- COMPOUND: "COc1ccc(/C=N/Nc2nc(=S)[nH]c3[nH]ncc23)cc1"
  ASSIGNED CLASS: "inactive"
- COMPOUND: "O=Nn1c2ccccc2c2cc([N+](=O)[O-])ccc21"
  ASSIGNED CLASS: "inactive"
- COMPOUND: "CN(C)CCNC(=O)c1cccc2nc3c(C(=O)NCCN(C)C)cccc3nc12"
  ASSIGNED CLASS: "active"
- COMPOUND: "CC(C)=Cc1cc(C)c2c(O)cc(C)c3c2c1C(C)=C(O)C3=O"
  ASSIGNED CLASS: "inactive"
- COMPOUND: "O=C1c2cc3c(cc2CC1Cc1ccc2c(c1)CCC2)CCC3 (centres undefined)"
  ASSIGNED CLASS: "inactive"
- COMPOUND: "CCOC(=O)C1=C(C)N(Cc2ccc(Cl)cc2Cl)C2(O)C(OC)CC(=O)C3C(=O)N(c4ccccc4)C(=O)C132 (centres undefined)"
  ASSIGNED CLASS: "inactive"
- COMPOUND: "O=C(O)C1Cc2c([nH]c3ccccc23)C(CCCCO)N1 (centres undefined)"
  ASSIGNED CLASS: "inactive"
- COMPOUND: "CCC(=C/[C@H](C)C/C=C/C(C)=C/[C@@H](C)C(=O)[C@@H](C)[C@H](O)[C@@H](C)CC)/C=C/[C@H]1CC=CC(=O)O1"
  ASSIGNED CLASS: "active"

---

system: UACC-62; assay: NCI tumour cell line growth inhibition, 48 h
Active and inactive are the calls of the source. Rule as the data show it: active = GI50 up to about 1.1 µM and inactive = higher. Where a SMILES comes first, the peptide text is derived from it. The star is where a group is joined. Cbz = O=C(OCc1ccccc1)*
Reported GI50 values are given for each entry in this list.

- COMPOUND: "CC(=O)OCC1OC(n2c(=S)n(-c3ccc([N+](=O)[O-])cc3)c(=O)c3ccccc32)C(OC(C)=O)C(OC(C)=O)C1OC(C)=O (stereo not drawn)"
  GI50: "15.7 µM (inactive)"
- COMPOUND: "CCc1cn2c(/C=N/N=C(N)N)c(-c3cc(C)c(Cl)cc3Cl)nc2s1"
  GI50: "1.42 µM (inactive)"
- COMPOUND: "CCOC(=O)CCC(NC(=O)C(CC(=O)OC)NC(=O)OCc1ccccc1)C(=O)NC(CC(=O)OC)C(=O)NC(CCC(=O)OCC)C(=O)NC(CC(=O)OC)C(=O)NC(CCC(=O)OCC)C(=O)NC(CC(=O)OCC)C(=O)OCC (stereo not drawn) (Cbz-D(OMe)E(OEt)D(OMe)E(OEt)D(OMe)E(OEt)D(OEt)-OEt; configuration not given here)"
  GI50: "> 100 µM (inactive)"
- COMPOUND: "CCSc1n/c(=C\\c2ccc(N(C)C)cc2)c2nnnn12"
  GI50: "> 100 µM (inactive)"
- COMPOUND: "O=Nn1c2ccccc2c2cc([N+](=O)[O-])ccc21"
  GI50: "16 µM (inactive)"
- COMPOUND: "CCOC(=O)c1nc2ccc(C(F)(F)F)cc2[nH]c1=O"
  GI50: "> 100 µM (inactive)"
- COMPOUND: "CCOC(=O)Cc1cnc(NC(NC(=O)CC)(C(F)(F)F)C(F)(F)F)s1"
  GI50: "> 100 µM (inactive)"
- COMPOUND: "CCOC(=O)c1cn2c(n1)sc1cc(C)c(C)cc12"
  GI50: "28.3 µM (inactive)"

---

test system: MDA-N; test: NCI tumour cell line growth inhibition, 48 h
Activity calls are given as the source filed them. No stated cut-off is given here; in the data, active = GI50 up to about 1.1 µM and inactive = higher.
Outcome codes: Y = active, N = inactive

- COMPOUND: "COc1cc([N+](=O)[O-])ccc1N1C(=O)C2c3[nH]c4ccccc4c3C3CCC(C(C)(C)C)CC3C2C1=O (stereo not given)"
  TARGET ENTITY: "MDA-N"
  ASSIGNED CLASS: "N"
- COMPOUND: "Cc1c2c(Cl)c3c(c(Cl)c2c(C)c2c(Cl)c4c(c(Cl)c12)C(c1ccccc1)(c1ccccc1)C4(c1ccccc1)c1ccccc1)C(c1ccccc1)(c1ccccc1)C3(c1ccccc1)c1ccccc1"
  TARGET ENTITY: "MDA-N"
  ASSIGNED CLASS: "N"
- COMPOUND: "C[C@]12CCC(=O)O[C@H]1CCCCO2"
  TARGET ENTITY: "MDA-N"
  ASSIGNED CLASS: "N"
- COMPOUND: "CC1(C)N=C(/C(Cl)=[N+](/[O-])C(=O)c2ccc(Cl)cc2)C(C)(C)N1O"
  TARGET ENTITY: "MDA-N"
  ASSIGNED CLASS: "N"
- COMPOUND: "Cc1cc(S(=O)(=O)NC2=Nc3cccc4cccc(c34)N2)c(S)cc1Cl"
  TARGET ENTITY: "MDA-N"
  ASSIGNED CLASS: "Y"

---

system: Malme-3M; assay: NCI tumour cell line growth inhibition, 48 h
Activity calls are given as the source filed them. Cut-off read from the data, not from the text of the source: active = GI50 up to about 1.1 µM and inactive = higher.
Outcome codes: 1.0 for active, 0.0 for inactive

- MOLECULE: "CCOc1ccc(/N=N/C2C(=O)N(C(=O)CC(=O)Nc3ccccc3)N=C2C)cc1 (centres undefined)"
  ASSIGNED CLASS: 0.0
- MOLECULE: "CCOC(=O)C(O)(NC(=O)c1ccccc1F)C(F)(F)F (centres undefined)"
  ASSIGNED CLASS: 0.0
- MOLECULE: "N=C(N)NNC(=O)CCn1[nH]c(=O)c(Cl)c(Cl)c1=O"
  ASSIGNED CLASS: 0.0
- MOLECULE: "CSc1nc(C)c(CCCl)c(Cl)n1"
  ASSIGNED CLASS: 0.0
- MOLECULE: "COC(=O)C12C3C4C5C3(C#N)C1C5(C(=O)OC)C42C(=O)N(C(C)C)C(C)C (centres undefined)"
  ASSIGNED CLASS: 0.0
- MOLECULE: "CCOC(=O)C1=C(C)NC(=O)N([N+](=O)[O-])C1c1ccccc1C(F)(F)F (centres undefined)"
  ASSIGNED CLASS: 0.0
- MOLECULE: "O=C(O)Cn1c(=O)[nH]c(=O)c2c1ncn2Cc1ccccc1"
  ASSIGNED CLASS: 0.0
- MOLECULE: "S=C(N/N=C(/c1ccccc1)c1ccccn1)N(Cc1ccccn1)Cc1ccccn1"
  ASSIGNED CLASS: 1.0
- MOLECULE: "NC1CCC(c2cc3ccccc3s2)(N2CCCCC2)CC1 (centres undefined)"
  ASSIGNED CLASS: 0.0
- MOLECULE: "COc1cc(/N=N\\c2cccc(S(=O)(=O)O)c2)ccc1/N=N\\c1ccc(/C=C/c2ccc(-n3on3-c3ccc(/C=C/c4ccc(/N=N/c5ccc(/N=N\\c6cccc(S(=O)(=O)O)c6)cc5OC)cc4S(=O)(=O)O)c(S(=O)(=O)O)c3)cc2S(=O)(=O)O)c(S(=O)(=O)O)c1"
  ASSIGNED CLASS: 0.0
- MOLECULE: "CC12CCCC3(CC(=O)C(C)(C)C3C(=O)C1)C2 (centres undefined)"
  ASSIGNED CLASS: 0.0
- MOLECULE: "COc1ccc(OC)c2[s+]snc12"
  ASSIGNED CLASS: 0.0
- MOLECULE: "Cn1c(N(CCO)CCO)cnc1[N+](=O)[O-]"
  ASSIGNED CLASS: 0.0
- MOLECULE: "Cc1ccc(NC(=O)CSc2nnc(-c3ccc(/N=C\\c4ccc(Cl)cc4)cc3)o2)cc1"
  ASSIGNED CLASS: 0.0
- MOLECULE: "CN(C)CCC(=O)N1C/C(=C/c2ccccc2)C(=O)/C(=C\\c2ccccc2)C1"
  ASSIGNED CLASS: 0.0
- MOLECULE: "COC(=O)CCc1ccc2c(c1)C(=O)CC2"
  ASSIGNED CLASS: 0.0
- MOLECULE: "CSc1nc(NC2OC(COC(C)=O)C(OC(C)=O)C(OC(C)=O)C2OC(C)=O)c(-c2csc(N)n2)c(=O)n1C (centres undefined)"
  ASSIGNED CLASS: 0.0
- MOLECULE: "COc1c(C)c(OC)c2c(c1O)[C@@H]1[C@@H]3Cc4c(OC)c(C)c(OC)c(O)c4[C@H](CNC(=O)c4cnc5ccccc5n4)N3[C@@H](C#N)[C@H](C2)N1C"
  ASSIGNED CLASS: 1.0
- MOLECULE: "CC(C)=CCC/C(=C\\CC/C(=C\\CCc1ccoc1)C(=O)O)C(=O)O"
  ASSIGNED CLASS: 0.0

---

test system: NCI-H460; assay: NCI tumour cell line growth inhibition, 48 h
Calls of active or inactive are those of the source. No stated cut-off is given here; in the data, active = GI50 up to about 1.1 µM and inactive = higher.
Classes used: y (active), n (inactive)

- COMPOUND: "CSc1nc(NC2OCC(OC(C)=O)C(OC(C)=O)C2OC(C)=O)c(/N=C(\\C)C(C)=O)c(=O)[nH]1 (centres undefined)"
  ASSIGNED CLASS: "n"
- COMPOUND: "O=C(O)c1cc(=O)c2c(OCC(O)COc3cccc4oc(C(=O)O)cc(=O)c34)cccc2o1"
  ASSIGNED CLASS: "n"
- COMPOUND: "COCOC1CCCC[C@@]1(OCCOCCO[C@@]1(c2ccccc2)CCCC[C@H]1OCOC)c1ccccc1 (some centres undefined)"
  ASSIGNED CLASS: "n"
- COMPOUND: "CSc1nnc2n1-c1ccccc1SCC2"
  ASSIGNED CLASS: "n"
- COMPOUND: "COc1cc([C@@H]2c3cc4c(cc3[C@@H](NCCCN(C)C)[C@H]3COC(=O)[C@H]23)OCO4)cc(OC)c1O"
  ASSIGNED CLASS: "y"
- COMPOUND: "[O-][S+](CC1(O)CCCCC1)c1ccccc1 (centres undefined)"
  ASSIGNED CLASS: "n"
- COMPOUND: "COc1cc(Nc2cnc3ccc(C(F)(F)F)cc3n2)cc(OC)c1OC"
  ASSIGNED CLASS: "n"
- COMPOUND: "O=C(Nc1cccc([N+](=O)[O-])c1)C(=O)C(C(=O)c1ccccc1F)C1OC(=O)C2C=CC=CC21 (centres undefined)"
  ASSIGNED CLASS: "n"
- COMPOUND: "CCOC(=O)[C@H]1O[C@@H]1C(=O)NC(CC(C)C)C(=O)NCCC(C)C (some centres undefined)"
  ASSIGNED CLASS: "n"
